Origin of measurements: the METLIN SMRT retention time set (Domingo-Almenara et al. 2019)

assay: gradient 5% acetonitrile 3 min, to 50% in 2 min, to 85% in 15 min, held 3 min, 100 µL/min; conditions: column: Zorbax Extend-C18 2.1 x 50 mm; eluents: water / acetonitrile, 0.1% formic acid
// reported RP-LC retention time for each item listed
Please state the value followed by its unit.

Solved entries (count: 3):
CCC(=O)N1CCC2(CC1)NCc1ccccc1-n1ccnc12 :: 562 s
CCOc1ccccc1CNC(=O)C1CCN(Cc2c(C)n(CC)c3ccccc23)CC1 :: 780 s
CCn1c(=O)c(N2CCC(NC(=O)Nc3ccccc3Cl)CC2)nc2ccccc21 :: 1010 s

State the recorded RP-LC retention time for this entry: O=C1CCCc2cc(S(=O)(=O)N3CCC(C(=O)N4CCC5(CC4)OCCO5)CC3)ccc2N1
662 s

Fill blank: measured RP-LC retention time of the molecule O=C(C1=CN(c2cccc(Br)c2)c2cc(F)ccc2S1(=O)=O)N1CCCC1 is ____.
863 s

====

test: gradient 5% acetonitrile 3 min, to 50% in 2 min, to 85% in 15 min, held 3 min, 100 µL/min; conditions: column: Zorbax Extend-C18 2.1 x 50 mm; eluents: water / acetonitrile, 0.1% formic acid
// reported RP-LC retention time per item
Numbers only; they are read as s.

# example entries with known answers
O=C(NCCc1ccccc1)N1CCc2nc(-c3ccc(F)cc3)ncc2C1 :: 900
COC(=O)c1ccc(OC(=O)N(C)c2ccccc2)cc1 :: 879
CC1CCN(c2nccnc2Oc2ccc(C(=O)N3CCN(c4ccccn4)CC3)cc2)CC1 :: 711
O=C(c1ccsc1)N1CCN(c2nnc3ccc(C(F)(F)F)cn23)CC1 :: 718
CCOC(=O)CCNC(=O)NCC1CC(=O)N(c2ccc(F)cc2)C1 (centres undefined) :: 629

Could you share which RP-LC retention time value was measured for Cc1noc(CNC(=O)C2CCN(C(=O)CSc3nc4ccccc4s3)CC2)n1 ?
665

Which measured RP-LC retention time value corresponds to Cc1oc2c(C)c3oc(=O)c(CCC(=O)N4CCN(c5ccccn5)CC4)c(C)c3cc2c1C ?
728

# lookup: RP-LC retention time of CCc1ccc(NC(=O)Cn2cnc3nc4c(cc3c2=O)CCCC4)cc1
788

Return reported RP-LC retention time; argument: Cc1ccc(F)cc1NC(=O)c1c(O)c2cccnc2n(-c2ccc(F)cc2)c1=O
1290

====

test: gradient 5% acetonitrile 3 min, to 50% in 2 min, to 85% in 15 min, held 3 min, 100 µL/min; settings: column: Zorbax Extend-C18 2.1 x 50 mm; eluents: water / acetonitrile, 0.1% formic acid
Each entry below carries its recorded RP-LC retention time.
Could you give me the number in s? Just the number is fine.

Cc1noc(C)c1CC(=O)NCCn1ncc2c(=O)n(Cc3ccc(F)cc3)cnc21 :: 640
CCOc1ccc(-c2nnc(SCC(=O)Nc3nnc(C)s3)o2)cc1 :: 776
CN1C(=O)c2cccn2CC1C(=O)NC1CCCC1 (centres undefined) :: 634

Param item = Cc1coc2c(C)c3oc(=O)c(CCC(=O)NCCc4c[nH]c5ccccc45)c(C)c3cc12 ; retrieve measured RP-LC retention time.
964

Which RP-LC retention time value is on record for O=C(Nc1ncc([N+](=O)[O-])s1)c1c2c(nn1C1CCS(=O)(=O)C1)CCC2 (centres undefined) ?
792

State the recorded RP-LC retention time for this entry: Cc1ccc(NS(=O)(=O)c2n[nH]c(C)c2C(=O)NCCc2cccs2)cc1
912

GET /values?readout=RP-LC retention time&item= C#CCC(Cc1cnc2nc(N)nc(N)c2n1)c1ccc(C(=O)N[C@@H](CCC(=O)O)C(=O)O)cc1 (some centres undefined)
619

Please give the measured RP-LC retention time for this compound: CCCN1C(=O)c2c(C(=O)NCc3ccc(F)cc3)ncn2CC1(C)C(=O)NCc1ccc(F)cc1 (centres undefined)
778

Which RP-LC retention time value belongs to CCN(CC)C(=O)c1ccc(-c2nc3cc(NS(=O)(=O)c4cccs4)ccc3n2C)cc1 ?
679

====

test: gradient 5% acetonitrile 3 min, to 50% in 2 min, to 85% in 15 min, held 3 min, 100 µL/min; conditions: column: Zorbax Extend-C18 2.1 x 50 mm; eluents: water / acetonitrile, 0.1% formic acid
MEASURED_METRIC: RP-LC retention time (s)
The reply should be a number in s, with the unit left off.

Observe how each entry below is paired with its result.
O=C(O)CCNS(=O)(=O)c1ccc(Cl)c(-c2nnc(-c3ccccc3)o2)c1 :: 781
COc1ccc(S(=O)(=O)N2CCC(C(=O)Nc3nccs3)CC2)cc1 :: 720
COc1ccc(-c2noc(-c3nc(-c4cc(OC)c(OC)c(OC)c4)no3)n2)cc1 :: 1080
COc1ccc(C(=O)N2CCC3(CC2)NC(=O)c2cc(F)ccc2N3C)cc1 :: 730
Cc1nc2nc(SCC(=O)NCCCN3CCOCC3)nn2c(C)c1Cc1ccccc1 :: 622
Cc1noc(-c2nn(C)c3c2CN(C(=O)NCc2ccc(F)cc2)CC3)n1 :: 699

Which RP-LC retention time is listed for Cc1ccc(N2CC(c3noc(-c4ccc(F)cc4Cl)n3)CC2=O)cc1 (configuration not stated) ?
1060

Using the record for CC(C)n1c(=O)c2ccccc2n(Cc2nc(-c3cccc(Br)c3)no2)c1=O , report its RP-LC retention time.
1250

Data request, read-out RP-LC retention time, for CC(C)n1c(N2CCCN(C(=O)c3ccccn3)CC2)cc(=O)n(C(C)C)c1=O
712

State the recorded RP-LC retention time for this entry: CCOc1ccc(C(O)CN2CCN(c3ccccn3)CC2)cc1Cl (configuration not stated)
591

Entry COC1CCC12CCN(Cc1ccc(C#N)cc1)CC2 (configuration not stated) : reported RP-LC retention time = ?
597

Quick check: RP-LC retention time of COc1ccc(-c2cc(N3CCN(C(=O)c4cccs4)CC3)n[nH]2)cc1 ?
714

====

The entries below are paired with their reported RP-LC retention time.
experiment: gradient 5% acetonitrile 3 min, to 50% in 2 min, to 85% in 15 min, held 3 min, 100 µL/min; conditions: column: Zorbax Extend-C18 2.1 x 50 mm; eluents: water / acetonitrile, 0.1% formic acid
Give just the number in s; leave the unit off.

Solved cases below.
Cc1ccc(C(=O)N(CCc2cscn2)Cc2cccnc2)cc1C :: 636
COc1ccc(NC(=O)CSc2cc(N3CCN(c4ccccc4OC)CC3)ncn2)cc1OC :: 814
O=C(c1cnn2c(-c3ccc4c(c3)OCO4)ccnc12)N1CCN(c2ccccn2)CC1 :: 598
O=C1CCCc2cc(S(=O)(=O)NCCCN3CCN(c4ccccc4)CC3)ccc2N1 :: 576

For the molecule O=C(CSc1nnc2c3sc(N4CCCC4)nc3ncn12)Nc1cccc(Cl)c1 , what RP-LC retention time is on record?
874

// query RP-LC retention time value for entry Cc1ccc(CNC(=O)C2CCCN(c3nnc(C)c4c(C)n(-c5ccc(Cl)cc5)nc34)C2)cc1 (centres undefined)
784

Which RP-LC retention time is listed for Cc1nc2c(NC(=O)c3cccs3)cccn2n1 ?
690

Please report the recorded RP-LC retention time for CCOCCOC(=O)c1ccc(NC(=O)C(C)(C)C)cc1 .
815

====

assay: gradient 5% acetonitrile 3 min, to 50% in 2 min, to 85% in 15 min, held 3 min, 100 µL/min; settings: column: Zorbax Extend-C18 2.1 x 50 mm; eluents: water / acetonitrile, 0.1% formic acid
# RP-LC retention time per record follows
Write it as a number; the unit s goes unstated.

Solved entries:
COc1ccc(NC(=O)c2ccc(-n3cnc(NC(=O)C4CC4)c3)cc2)cc1Cl :: 780
Cc1ccc(Nc2c(-c3ccc(Cl)cc3)nc3ncccn23)cc1Cl :: 1020
Cc1cnc(C)n1CC1CCN(S(=O)(=O)Cc2ccccc2)C1 (stereo not given) :: 618
Cc1ncoc1C(=O)N1CC(c2noc(C3CCCN3CC3CC3)n2)C1 (stereo not given) :: 559

Consider now this further compound.
Need RP-LC retention time of CC(C)CN(CC1CCCO1)C(=O)CN1CC2=C(C1=O)C(c1ccccc1Cl)NC(=O)N2C (stereo not given) , thanks.
999

====

experiment: gradient 5% acetonitrile 3 min, to 50% in 2 min, to 85% in 15 min, held 3 min, 100 µL/min; conditions: column: Zorbax Extend-C18 2.1 x 50 mm; eluents: water / acetonitrile, 0.1% formic acid
In plain terms, low RP-LC retention time, meaning strictly below 700 s, gives true, and everything else gives false.

Completed entries (count: 3):
Cc1noc(C)c1C(=O)N1CCCC1Cc1noc(C2CCCC2)n1 (stereo not given) :: false
Cc1ccc(S(=O)(=O)c2nc(C)oc2NCc2ccco2)cc1 :: false
COc1cc(N2C(=O)CC(N3CCC(C(N)=O)CC3)C2=O)cc(OC)c1OC (stereo not given) :: true

Quick check: does O=C(C1CCCO1)N1CCC2(CC1)NCCc1c2[nH]c2ccccc12 (stereo not given) have RP-LC retention time under 700 s?
true

Does the reported RP-LC retention time of COCCNC(=O)C1Cc2ccccc2CN1S(=O)(=O)c1cccc(C)c1 (stereo not given) stay below 700 s?
false

Threshold test, RP-LC retention time < 700 s: O=C1N(CCNS(=O)(=O)c2cnc[nH]2)C(c2ccccc2)C12CCCCC2 (stereo not given)
false

Quick check: RP-LC retention time of CCn1c(C2CCN(S(=O)(=O)Cc3ccc(F)cc3Cl)C2)nc2ccncc21 (stereo not given) under 700 s?
true

Could you please tell me whether RP-LC retention time recorded for CC(C)c1ccc(S(=O)(=O)N2CCN(c3cnn4cnnc4c3)CC2)cc1 is less than 700 s?
false

Identify whether the compound O=C(NCCCN1CCN(C2CCCCC2)CC1)c1ccc2c(c1)NC(=O)C1CCCCN21 (stereo not given) records RP-LC retention time below 700 s.
true

Lab log: compare recorded RP-LC retention time with 700 s; is it strictly lower for Cc1cc(C)cc(NC(=O)Cc2nnc(-c3cnccn3)o2)c1 ?
false

Strictly below 700 s in RP-LC retention time? CCc1nc(-c2ccc(-c3noc(C(C)NC(=O)c4ccco4)n3)cc2)cs1 (stereo not given)
false

Check if RP-LC retention time falls below 700 s for COc1cccc2sc(N3CCCCC3)nc12 .
false
